B1: HDV Ribozyme (parent)
chain: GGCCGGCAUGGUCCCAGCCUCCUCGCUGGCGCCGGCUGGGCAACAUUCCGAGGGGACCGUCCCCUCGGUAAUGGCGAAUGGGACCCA

Variants of: B1
Test: self-cleavage, relative activity (ratio to wild type); higher = more cleavage; co-transcriptional
Kind request: treat 0.5 as inclusive, so self-cleavage at 0.5 or higher is True, anything lower is False.

# example entries with known answers
[[record]]
variant_id = "G28U G81C"
label_class = "False"

[[record]]
variant_id = "C3G U65C"
label_class = "True"

[[record]]
variant_id = "C22A A43G"
label_class = "False"

[[record]]
variant_id = "A16C C19U"
label_class = "False"

[[record]]
variant_id = "U12A C44A"
label_class = "False"

[[record]]
variant_id = "U27G C48U"
label_class = "True"

[[record]]
variant_id = "C66G G67A"
label_class = "True"

[[record]]
variant_id = "U79A G81C"
label_class = "False"

[[record]]
variant_id = "G1U G50U"
label_class = "False"

[[record]]
variant_id = "C3A A87C"
label_class = "True"


-- ask I'd appreciate it if you could say whether C26A G68U has self-cleavage at least equal to 0.5.
-- reply True

-- ask I'd appreciate it if you could say whether G68U G76C has self-cleavage at least equal to 0.5.
-- reply True

-- ask I'd appreciate it if you could say whether C24A U65C has self-cleavage at least equal to 0.5.
-- reply True

-- ask I'd appreciate it if you could say whether C24U G29A has self-cleavage at least equal to 0.5.
-- reply False

-- ask I'd appreciate it if you could say whether C19G U72G has self-cleavage at least equal to 0.5.
-- reply False

-- ask I'd appreciate it if you could say whether G6A C66A has self-cleavage at least equal to 0.5.
-- reply True
